- System under test: Multidrug resistance-associated protein 1 (Homo sapiens)
- Sequence (P33527 whole entry): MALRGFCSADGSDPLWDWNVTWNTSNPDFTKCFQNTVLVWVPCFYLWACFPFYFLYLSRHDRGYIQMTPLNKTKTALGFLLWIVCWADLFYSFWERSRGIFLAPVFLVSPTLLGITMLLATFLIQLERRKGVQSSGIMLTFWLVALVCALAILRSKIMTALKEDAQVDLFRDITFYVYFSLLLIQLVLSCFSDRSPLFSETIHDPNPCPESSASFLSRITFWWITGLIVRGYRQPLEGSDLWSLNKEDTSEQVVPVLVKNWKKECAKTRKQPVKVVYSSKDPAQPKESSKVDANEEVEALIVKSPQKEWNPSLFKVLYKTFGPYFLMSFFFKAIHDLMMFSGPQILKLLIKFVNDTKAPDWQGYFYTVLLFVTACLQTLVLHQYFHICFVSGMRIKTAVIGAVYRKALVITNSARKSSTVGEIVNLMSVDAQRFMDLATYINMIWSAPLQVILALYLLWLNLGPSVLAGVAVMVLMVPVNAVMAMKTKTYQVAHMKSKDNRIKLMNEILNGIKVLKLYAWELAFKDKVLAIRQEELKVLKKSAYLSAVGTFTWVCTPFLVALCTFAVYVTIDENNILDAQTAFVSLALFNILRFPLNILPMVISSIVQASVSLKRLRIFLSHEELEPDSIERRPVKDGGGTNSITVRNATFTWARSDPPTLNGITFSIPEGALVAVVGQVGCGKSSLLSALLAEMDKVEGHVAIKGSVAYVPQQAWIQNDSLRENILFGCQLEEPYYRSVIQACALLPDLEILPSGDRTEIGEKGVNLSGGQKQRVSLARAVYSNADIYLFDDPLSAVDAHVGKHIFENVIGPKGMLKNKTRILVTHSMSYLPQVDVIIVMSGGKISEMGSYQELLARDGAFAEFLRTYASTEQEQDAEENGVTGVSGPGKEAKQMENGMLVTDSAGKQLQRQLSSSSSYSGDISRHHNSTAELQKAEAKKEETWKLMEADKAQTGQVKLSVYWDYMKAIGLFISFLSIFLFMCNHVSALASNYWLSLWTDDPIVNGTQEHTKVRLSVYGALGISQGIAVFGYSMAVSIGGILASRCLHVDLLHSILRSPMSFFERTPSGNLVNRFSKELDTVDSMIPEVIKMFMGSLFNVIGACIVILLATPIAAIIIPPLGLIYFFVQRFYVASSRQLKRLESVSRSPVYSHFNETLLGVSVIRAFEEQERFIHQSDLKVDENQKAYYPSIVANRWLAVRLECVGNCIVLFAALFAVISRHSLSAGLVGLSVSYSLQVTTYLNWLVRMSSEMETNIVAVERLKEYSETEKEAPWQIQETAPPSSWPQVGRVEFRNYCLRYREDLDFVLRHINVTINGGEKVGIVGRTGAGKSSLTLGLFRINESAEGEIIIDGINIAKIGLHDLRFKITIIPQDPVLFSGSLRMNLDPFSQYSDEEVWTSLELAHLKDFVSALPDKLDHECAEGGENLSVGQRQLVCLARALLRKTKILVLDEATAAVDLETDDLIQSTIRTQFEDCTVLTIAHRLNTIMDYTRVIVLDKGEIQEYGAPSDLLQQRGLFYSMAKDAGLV
- Assay remarks: Inhibition of MRP1 in human 2008/MRP1 cells assessed as potentiation of doxorubicin-induced cytotoxicity by measuring cell survival at 1 uM after 5 days by MTS assay relative to control
- Type: cell-based
- Assay conditions: 120 h

- Structure: "O=c1cc(-c2ccc(OCCOCCn3cc(CN(Cc4ccccc4)Cc4cn(CCOCCOc5ccc(-c6cc(=O)c7ccccc7o6)cc5)nn4)nn3)cc2)oc2ccccc12"
  Survival, %: 79
- Structure: "O=c1cc(-c2ccc(OCCOCCn3cc(CCCOc4ccc(-c5cc(=O)c6ccc(F)cc6o5)cc4)nn3)cc2)oc2ccccc12"
  Survival, %: 29
- Structure: "Cc1ccc2oc(-c3ccc(OCCCCc4cn(CCOCCOCCOc5ccc6c(=O)cc(-c7ccccc7)oc6c5)nn4)cc3)cc(=O)c2c1"
  Survival, %: 65
- Structure: "Cc1ccc2oc(-c3ccc(OCCCCc4cn(CCOCCOCCOc5ccc(-c6cc(=O)c7cc(F)ccc7o6)cc5)nn4)cc3)cc(=O)c2c1"
  Survival, %: 41
- Structure: "O=c1cc(-c2ccc(OCCCc3cn(CCOCCOCCOc4ccc(-c5cc(=O)c6cc(F)ccc6o5)cc4)nn3)cc2)oc2cc(F)ccc12"
  Survival, %: 48
